Consider the following molecules; for each one, report its viability, T/C.
Tested on: SYO-1 complex spheroid growth, percent test/control
measurementDescription: Anticancer human tumor SYO-1 cell line growth inhibition [Asc];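 note: compound exposure lasted 7 days after spheroids grew 3 days; 100% = DMSO vehicle control viability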
recordedConditions: second compound 0.0316 µM; first compound 1 µM; hits give low values
All answers are understood in %, so give the number only.

Lookup: Request - read-out viability, T/C | tested on SYO-1 complex spheroid growth, percent test/control | molecule C=CC(=O)N1CCN(c2nc(=O)n(-c3c(C)ccnc3C(C)C)c3nc(-c4c(O)cccc4F)c(F)cc23)C(C)C1 (configuration not stated) + CNC(C)C(=O)NC1CN(S(=O)(=O)c2cccc(S(=O)(=O)N3CCC4CCC(C(=O)NC(c5ccccc5)c5ccccc5)N4C(=O)C(NC(=O)C(C)NC)C3)c2)CCC2CCC(C(=O)NC(c3ccccc3)c3ccccc3)N2C1=O
Found: 97.2

Lookup: Request - read-out viability, T/C | tested on SYO-1 complex spheroid growth, percent test/control | molecule C=C(F)C(=O)N1CCN(c2nc(OCC3CCCN3C)nc3c2CCN(c2cccc4cccc(Cl)c24)C3)CC1CC#N (configuration not stated) + CNC(C)C(=O)NC1CN(S(=O)(=O)c2cccc(S(=O)(=O)N3CCC4CCC(C(=O)NC(c5ccccc5)c5ccccc5)N4C(=O)C(NC(=O)C(C)NC)C3)c2)CCC2CCC(C(=O)NC(c3ccccc3)c3ccccc3)N2C1=O
Found: 98.3

Lookup: Request - read-out viability, T/C | tested on SYO-1 complex spheroid growth, percent test/control | molecule CNC(C)C(=O)NC1CN(S(=O)(=O)c2cccc(S(=O)(=O)N3CCC4CCC(C(=O)NC(c5ccccc5)c5ccccc5)N4C(=O)C(NC(=O)C(C)NC)C3)c2)CCC2CCC(C(=O)NC(c3ccccc3)c3ccccc3)N2C1=O (configuration not stated) + Cc1c(S(C)(=O)=O)c(-c2cc(F)cc(N3CCN(c4ccc(NS(=O)(=O)c5ccc(NC(CCN6CCC(C(=O)OCCCP(=O)(O)O)CC6)CSc6ccccc6)c(S(=O)(=O)C(F)(F)F)c5)cc4)CC3)c2)c(-c2ccc(Cl)cc2)n1C(C)C
Found: 103

Lookup: Request - read-out viability, T/C | tested on SYO-1 complex spheroid growth, percent test/control | molecule O=C(c1ccc(F)c(F)c1Nc1ccc(I)cc1F)N1CC(O)([C@@H]2CCCCN2)C1 + Cc1c(S(C)(=O)=O)c(-c2cc(F)cc(N3CCN(c4ccc(NS(=O)(=O)c5ccc(NC(CCN6CCC(C(=O)OCCCP(=O)(O)O)CC6)CSc6ccccc6)c(S(=O)(=O)C(F)(F)F)c5)cc4)CC3)c2)c(-c2ccc(Cl)cc2)n1C(C)C
Found: 113

Lookup: Request - read-out viability, T/C | tested on SYO-1 complex spheroid growth, percent test/control | molecule CCN1CCN(Cc2ccc(Nc3ncc(F)c(-c4cc(F)c5nc(C)n(C(C)C)c5c4)n3)nc2)CC1 + Cc1c(S(C)(=O)=O)c(-c2cc(F)cc(N3CCN(c4ccc(NS(=O)(=O)c5ccc(NC(CCN6CCC(C(=O)OCCCP(=O)(O)O)CC6)CSc6ccccc6)c(S(=O)(=O)C(F)(F)F)c5)cc4)CC3)c2)c(-c2ccc(Cl)cc2)n1C(C)C
Found: 106

Lookup: Request - read-out viability, T/C | tested on SYO-1 complex spheroid growth, percent test/control | molecule C#Cc1c(F)ccc2cc(O)cc(-c3ncc4c(N5CC6CCC(C5)N6)nc(OCC56CCCN5CC(F)C6)nc4c3F)c12 (configuration not stated) + Cc1c(S(C)(=O)=O)c(-c2cc(F)cc(N3CCN(c4ccc(NS(=O)(=O)c5ccc(NC(CCN6CCC(C(=O)OCCCP(=O)(O)O)CC6)CSc6ccccc6)c(S(=O)(=O)C(F)(F)F)c5)cc4)CC3)c2)c(-c2ccc(Cl)cc2)n1C(C)C
Found: 99.9

Lookup: Request - read-out viability, T/C | tested on SYO-1 complex spheroid growth, percent test/control | molecule CCN1CCN(Cc2ccc(Nc3ncc(F)c(-c4cc(F)c5nc(C)n(C(C)C)c5c4)n3)nc2)CC1 + CNC(C)C(=O)NC1CN(S(=O)(=O)c2cccc(S(=O)(=O)N3CCC4CCC(C(=O)NC(c5ccccc5)c5ccccc5)N4C(=O)C(NC(=O)C(C)NC)C3)c2)CCC2CCC(C(=O)NC(c3ccccc3)c3ccccc3)N2C1=O
Found: 114

Lookup: Request - read-out viability, T/C | tested on SYO-1 complex spheroid growth, percent test/control | molecule O=C(c1cc(Cc2n[nH]c(=O)c3ccccc23)ccc1F)N1CCN(C(=O)C2CC2)CC1 + Cc1c(S(C)(=O)=O)c(-c2cc(F)cc(N3CCN(c4ccc(NS(=O)(=O)c5ccc(NC(CCN6CCC(C(=O)OCCCP(=O)(O)O)CC6)CSc6ccccc6)c(S(=O)(=O)C(F)(F)F)c5)cc4)CC3)c2)c(-c2ccc(Cl)cc2)n1C(C)C
Found: 85.1

Lookup: Request - read-out viability, T/C | tested on SYO-1 complex spheroid growth, percent test/control | molecule C#Cc1c(F)ccc2cc(O)cc(-c3ncc4c(N5CC6CCC(C5)N6)nc(OCC56CCCN5CC(F)C6)nc4c3F)c12 (configuration not stated) + CNC(C)C(=O)NC1CN(S(=O)(=O)c2cccc(S(=O)(=O)N3CCC4CCC(C(=O)NC(c5ccccc5)c5ccccc5)N4C(=O)C(NC(=O)C(C)NC)C3)c2)CCC2CCC(C(=O)NC(c3ccccc3)c3ccccc3)N2C1=O
Found: 106

Lookup: Request - read-out viability, T/C | tested on SYO-1 complex spheroid growth, percent test/control | molecule O=C(c1ccc(F)c(F)c1Nc1ccc(I)cc1F)N1CC(O)([C@@H]2CCCCN2)C1 + CNC(C)C(=O)NC1CN(S(=O)(=O)c2cccc(S(=O)(=O)N3CCC4CCC(C(=O)NC(c5ccccc5)c5ccccc5)N4C(=O)C(NC(=O)C(C)NC)C3)c2)CCC2CCC(C(=O)NC(c3ccccc3)c3ccccc3)N2C1=O
Found: 94.5

Lookup: Request - read-out viability, T/C | tested on SYO-1 complex spheroid growth, percent test/control | molecule COc1c(OCCCN2CCOCC2)ccc2c3n(c(=NC(=O)c4cnc(N)nc4)nc12)CCN3 + Cc1c(S(C)(=O)=O)c(-c2cc(F)cc(N3CCN(c4ccc(NS(=O)(=O)c5ccc(NC(CCN6CCC(C(=O)OCCCP(=O)(O)O)CC6)CSc6ccccc6)c(S(=O)(=O)C(F)(F)F)c5)cc4)CC3)c2)c(-c2ccc(Cl)cc2)n1C(C)C
Found: 36.4

Lookup: Request - read-out viability, T/C | tested on SYO-1 complex spheroid growth, percent test/control | molecule O=C(c1cc(Cc2n[nH]c(=O)c3ccccc23)ccc1F)N1CCN(C(=O)C2CC2)CC1 + CNC(C)C(=O)NC1CN(S(=O)(=O)c2cccc(S(=O)(=O)N3CCC4CCC(C(=O)NC(c5ccccc5)c5ccccc5)N4C(=O)C(NC(=O)C(C)NC)C3)c2)CCC2CCC(C(=O)NC(c3ccccc3)c3ccccc3)N2C1=O
Found: 93.6
